Data provenance: patent US10246453B2

Reported IC50 values for a set of molecules
target: NaV1.1 (Homo sapiens (Human)); test: Sodium Influx Assay (Flux), NaV1.1; type: cell-based; settings: Trex HEK293 cells, ANG2 dye; arithmetic mean
quantity_name: IC50 (µM)

molecule | unit | operator | recorded_measurement
O=S(=O)(Nc1cscn1)c1ccc(O[C@@H]2C[C@H]3CC[C@@H](C2)N3Cc2cc(Cl)ccc2F)c(Cl)c1 [Example 316] | µM | = | 2.8
C[C@@H](c1ccccc1)N1CC[C@H](N(C)c2ccc(S(=O)(=O)Nc3cscn3)cc2Cl)C1 [Example 250, 2,2,2-trifluoroacetate] | µM | = | 5.5
CN(c1cc(F)c(S(=O)(=O)Nc2cscn2)cc1Cl)[C@H]1CCN([C@@H]2CCc3ccccc32)C1 [Example 246, 2,2,2-trifluoroacetate] | µM | = | 8.51
CC[C@H](c1ccccc1)N1CC[C@H](N(C)c2cc(F)c(S(=O)(=O)Nc3cscn3)cc2Cl)C1 [Example 243] | µM | = | 13.1
CCc1cc(S(=O)(=O)Nc2cscn2)c(F)cc1N(C)[C@H]1CCN(Cc2ccccc2)C1 [Example 290, 2,2,2-trifluoroacetate] | µM | = | 6.24
Cc1ccnc(CN2CCC(Oc3ccc(S(=O)(=O)Nc4nccs4)cc3Cl)CC2)c1 [Example 14] | µM | > | 30
Cc1cn(C)c(CN2CC[C@H](N(C)c3cc(F)c(S(=O)(=O)Nc4cscn4)cc3C)C2)n1 [Example 150] | µM | > | 30
O=S(=O)(Nc1ncns1)c1ccc(O[C@H]2CCN(Cc3ccccc3)C2)c(Cl)c1 [Example 97, 2,2,2-trifluoroacetate] | µM | > | 30
COc1ccc(F)c(CN2CC[C@H](N(C)c3cc(F)c(S(=O)(=O)Nc4cscn4)cc3Cl)C2)c1 [Example 173, 2,2,2-trifluoroacetate] | µM | = | 8.75
O=S(=O)(Nc1cccc(F)n1)c1ccc(OC2CCN(Cc3ccccc3)CC2)c(Cl)c1 [Example 77, 2,2,2-trifluoroacetate] | µM | = | 19
Cc1cc(S(=O)(=O)Nc2cnsc2)c(F)cc1N(C)[C@H]1CCN(Cc2ccccc2)C1 [Example 307] | µM | = | 4.11
O=S(=O)(Nc1cscn1)c1cc(Cl)c(O[C@H]2CCN(Cc3cccc(C(F)F)c3)C[C@H]2F)cc1F [Example 162] | µM | = | 6.88
Cc1c(OC2(C)CCN(Cc3ccccc3)C2)cc(F)c(S(=O)(=O)Nc2nccs2)c1F (racemic) [Example 228, 2,2,2-trifluoroacetate] | µM | = | 5.27
Cc1cc(S(=O)(=O)Nc2cscn2)c(F)cc1N(C)[C@H]1CCN(Cc2cccc(F)c2F)C1 [compound 156] | µM | = | 7.8

---

Target: NaV1.6 (Homo sapiens (Human))
Sequence (Q9UQD0 whole entry): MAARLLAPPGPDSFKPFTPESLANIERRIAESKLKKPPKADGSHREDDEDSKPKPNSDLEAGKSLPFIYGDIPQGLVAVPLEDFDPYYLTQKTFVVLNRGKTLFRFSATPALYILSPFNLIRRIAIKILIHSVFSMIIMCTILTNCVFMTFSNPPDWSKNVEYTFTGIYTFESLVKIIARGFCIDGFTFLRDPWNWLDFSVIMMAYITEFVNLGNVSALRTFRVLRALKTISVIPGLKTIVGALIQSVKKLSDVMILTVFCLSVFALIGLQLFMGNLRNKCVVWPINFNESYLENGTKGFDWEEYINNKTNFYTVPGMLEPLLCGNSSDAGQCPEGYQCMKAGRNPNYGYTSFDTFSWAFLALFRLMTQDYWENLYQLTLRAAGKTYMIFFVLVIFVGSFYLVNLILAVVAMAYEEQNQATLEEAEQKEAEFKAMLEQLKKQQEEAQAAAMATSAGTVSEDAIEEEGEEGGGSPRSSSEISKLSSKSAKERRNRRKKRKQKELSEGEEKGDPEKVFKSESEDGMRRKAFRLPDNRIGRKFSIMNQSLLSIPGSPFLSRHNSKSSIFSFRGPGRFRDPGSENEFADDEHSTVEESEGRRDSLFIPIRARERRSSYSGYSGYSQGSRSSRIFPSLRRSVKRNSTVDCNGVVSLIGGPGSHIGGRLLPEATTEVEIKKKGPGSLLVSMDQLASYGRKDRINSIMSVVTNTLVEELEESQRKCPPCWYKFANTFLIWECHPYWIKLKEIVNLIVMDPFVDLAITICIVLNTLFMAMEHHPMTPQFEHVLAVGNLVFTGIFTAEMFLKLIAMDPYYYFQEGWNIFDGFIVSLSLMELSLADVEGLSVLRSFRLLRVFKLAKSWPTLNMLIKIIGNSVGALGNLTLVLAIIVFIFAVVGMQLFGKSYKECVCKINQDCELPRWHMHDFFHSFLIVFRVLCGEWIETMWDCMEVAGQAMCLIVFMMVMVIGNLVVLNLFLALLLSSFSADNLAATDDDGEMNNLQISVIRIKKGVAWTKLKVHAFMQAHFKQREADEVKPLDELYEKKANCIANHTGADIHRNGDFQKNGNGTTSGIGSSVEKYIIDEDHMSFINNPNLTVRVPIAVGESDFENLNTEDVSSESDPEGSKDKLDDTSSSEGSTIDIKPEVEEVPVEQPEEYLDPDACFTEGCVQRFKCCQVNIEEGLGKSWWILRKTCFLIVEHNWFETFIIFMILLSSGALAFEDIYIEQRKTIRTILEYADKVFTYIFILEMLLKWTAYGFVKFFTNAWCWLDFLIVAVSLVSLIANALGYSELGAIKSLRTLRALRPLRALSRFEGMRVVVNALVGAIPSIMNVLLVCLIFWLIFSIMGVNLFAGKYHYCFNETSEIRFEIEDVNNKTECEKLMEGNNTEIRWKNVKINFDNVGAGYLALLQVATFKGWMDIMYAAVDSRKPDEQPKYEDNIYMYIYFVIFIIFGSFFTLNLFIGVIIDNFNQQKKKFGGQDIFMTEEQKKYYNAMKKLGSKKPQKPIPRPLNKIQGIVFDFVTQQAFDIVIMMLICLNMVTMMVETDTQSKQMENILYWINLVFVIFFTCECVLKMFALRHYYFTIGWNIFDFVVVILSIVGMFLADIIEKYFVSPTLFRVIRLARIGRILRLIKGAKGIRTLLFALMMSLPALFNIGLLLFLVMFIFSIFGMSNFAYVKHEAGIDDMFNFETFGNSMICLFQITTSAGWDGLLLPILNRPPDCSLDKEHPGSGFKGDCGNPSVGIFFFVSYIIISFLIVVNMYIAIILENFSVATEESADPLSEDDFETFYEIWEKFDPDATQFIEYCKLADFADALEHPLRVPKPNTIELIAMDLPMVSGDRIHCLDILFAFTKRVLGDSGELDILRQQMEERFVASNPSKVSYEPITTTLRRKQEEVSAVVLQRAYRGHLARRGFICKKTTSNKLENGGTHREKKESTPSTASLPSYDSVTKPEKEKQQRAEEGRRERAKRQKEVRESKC
Assay: Electrophysiological Assay (EP), patch voltage clamp, NaV1.6
Type: cell-based
Details: HEK-293 cells, whole-cell patch clamp, inactivated state; arithmetic mean
Text: Patch voltage clamp electrophysiology allows for the direct measurement and quantification of block of voltage-gated sodium channels (Nay's), and allows the determination of the time-and voltage-dependence of block which has been interpreted as differential binding to the resting, open, and inactivated states of the sodium channel (Hille, B., Journal of General Physiology (1977), 69: 497-515). […]
Where a name gives a salt, the structure may show the parent alone.
Class (by IC50) -- LOW = under 50 nM, MEDIUM = from 50 nM up to 400 nM, HIGH = 400 nM and over

molecule | label
C[C@H](c1ccccc1)N1CCC(Oc2ccc(S(=O)(=O)Nc3cscn3)cc2Cl)CC1 [Example 57, 2,2,2-trifluoroacetate] | MEDIUM
CN(c1ccc(S(=O)(=O)Nc2nccs2)cc1Cl)[C@H]1CCN(Cc2cccc(Cl)c2)C1 | MEDIUM
C[C@@]1(Nc2ccc(S(=O)(=O)Nc3cscn3)cc2Cl)CCN(Cc2ccccc2)C1 [Example 225, formate] | HIGH
CN(c1ccc(S(=O)(=O)Nc2ncns2)cc1Cl)[C@@H]1CCN(Cc2ccccc2)C1 [Example 68, 2,2,2-trifluoroacetate] | HIGH
Cc1cccc(CN2CC[C@@H](Nc3cc(F)c(S(=O)(=O)Nc4nccs4)cc3Cl)C2)c1 | LOW
O=S(=O)(Nc1nccs1)c1ccc(OC2CCN(Cc3ccccn3)CC2)c(Cl)c1 | HIGH
O=S(=O)(Nc1cscn1)c1c(F)cc(OC2CCN(Cc3ccccc3)CC2)c(Cl)c1F [Example 105, formate] | MEDIUM
CN(c1cc(F)c(S(=O)(=O)Nc2cscn2)cc1Cl)[C@H]1CCN(C2(c3ccccc3)CC2)C1 [Example 259, 2,2,2-trifluoroacetate] | HIGH
C[C@H](c1ccccc1)N1CCC(Oc2ccc(S(=O)(=O)Nc3nccs3)cc2Cl)CC1 [Example 55, 2,2,2-trifluoroacetate] | LOW
O=S(=O)(Nc1nccs1)c1ccc(OC2CCN(Cc3ccccc3)CC2)c(Cl)c1 [Example 95, 2,2,2-trifluoroacetate] | MEDIUM
Cc1c(N(C)[C@H]2CCN(Cc3ccccc3)C2)cc(F)c(S(=O)(=O)Nc2ncns2)c1F | LOW
Cc1cccc(CN2CC[C@H](N(C)c3cc(F)c(S(=O)(=O)Nc4cscn4)cc3Cl)C2)n1 | MEDIUM
Cc1cc(S(=O)(=O)Nc2cscn2)c(F)cc1N(C)[C@H]1CCN(Cc2ccccc2)C1 [Example 101, formate] | MEDIUM
C[C@H](c1cc(Cl)ccc1F)N1CCC(Oc2ccc(S(=O)(=O)Nc3cscn3)cc2Cl)CC1 | MEDIUM
Cc1c(N(C)[C@H]2CCN(Cc3ccccc3)C2)cc(F)c(S(=O)(=O)Nc2cccc(F)n2)c1F [Example 298, formate] | LOW
